Taken from the kinase profiling compilation of Christmann-Franck et al. (2016).

Would you kindly list residual activity for each of these compounds?
target or system: RIPK2 (human) (UniProt O43353)
Sequence (O43353 whole entry, looked up): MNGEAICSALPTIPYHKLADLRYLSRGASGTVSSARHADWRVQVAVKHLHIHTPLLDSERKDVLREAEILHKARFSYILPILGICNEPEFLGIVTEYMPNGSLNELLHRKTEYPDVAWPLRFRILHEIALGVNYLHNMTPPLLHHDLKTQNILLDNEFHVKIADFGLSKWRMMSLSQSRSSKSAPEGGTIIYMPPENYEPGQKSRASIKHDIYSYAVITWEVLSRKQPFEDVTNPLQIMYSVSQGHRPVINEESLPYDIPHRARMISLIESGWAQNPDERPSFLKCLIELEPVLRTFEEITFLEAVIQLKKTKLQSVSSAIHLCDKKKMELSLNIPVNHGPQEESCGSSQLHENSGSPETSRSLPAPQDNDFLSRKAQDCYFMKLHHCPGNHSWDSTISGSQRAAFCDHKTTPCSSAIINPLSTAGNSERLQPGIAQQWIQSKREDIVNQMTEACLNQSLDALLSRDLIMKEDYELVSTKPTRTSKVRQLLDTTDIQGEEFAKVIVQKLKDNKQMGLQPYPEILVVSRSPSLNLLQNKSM
measurement protocol: radiometric filter-binding kinase assay, Kinase HotSpot
run parameters: compound 0.5 µM; ATP 10 µM
Numeric answer only, unit % assumed.

Prompt line: Using the record for Nc1cccc(-c2cc3c(Oc4cccc(O)c4)ncnc3[nH]2)c1 , report its residual activity.
Response line: 30.5

Prompt line: Using the record for COc1ccc(COc2ccc(Cc3cnc(N)nc3N)cc2OC)cc1 , report its residual activity.
Response line: 81.9

Prompt line: Using the record for O=C1NC(=O)C(c2cn(CCCn3ccnc3)c3ccccc23)=C1Nc1ccccc1 , report its residual activity.
Response line: 84.3

Prompt line: Using the record for Oc1cccc(-c2nc(N3CCOCC3)c3oc4ncccc4c3n2)c1 , report its residual activity.
Response line: 87.4

Prompt line: Using the record for CCOC(=O)c1c(C)[nH]c(/C=C2\C(=O)Nc3ccccc32)c1C , report its residual activity.
Response line: 88.3

Prompt line: Using the record for Nc1ccc2ncnc(NCCc3ccc(Oc4ccccc4)cc3)c2c1 , report its residual activity.
Response line: 94.6

====

target or system: MAPK10 (human) (UniProt P53779)
Sequence (P53779 whole entry, looked up): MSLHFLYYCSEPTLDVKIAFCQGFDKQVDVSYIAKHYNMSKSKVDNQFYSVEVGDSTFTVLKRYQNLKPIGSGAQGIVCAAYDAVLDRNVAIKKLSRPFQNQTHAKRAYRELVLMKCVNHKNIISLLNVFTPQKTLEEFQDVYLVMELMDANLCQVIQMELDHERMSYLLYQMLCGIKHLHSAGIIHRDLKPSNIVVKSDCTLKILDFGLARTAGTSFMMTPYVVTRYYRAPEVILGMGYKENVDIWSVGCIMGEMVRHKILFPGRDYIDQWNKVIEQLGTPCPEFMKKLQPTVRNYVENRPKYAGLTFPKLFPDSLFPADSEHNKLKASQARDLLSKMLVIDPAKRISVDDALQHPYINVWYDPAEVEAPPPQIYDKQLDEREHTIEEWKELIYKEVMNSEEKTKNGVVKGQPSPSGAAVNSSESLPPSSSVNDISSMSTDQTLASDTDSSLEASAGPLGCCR
measurement protocol: radiometric filter-binding kinase assay, Kinase HotSpot
run parameters: compound 0.5 µM; ATP 10 µM
endpoint: residual activity (%)
Numeric answer only, unit % assumed.

Prompt line: Using the record for Oc1cccc(-c2nc(N3CCOCC3)c3oc4ncccc4c3n2)c1 , report its residual activity.
Response line: 102

Prompt line: Using the record for CCN(CC)CCNC(=O)c1c(C)[nH]c(/C=C2\C(=O)Nc3ccc(F)cc32)c1C , report its residual activity.
Response line: 99.5

Prompt line: Using the record for CC(=O)c1ccc(N2CCOCC2)cc1O , report its residual activity.
Response line: 78.4

Prompt line: Using the record for O=C1NC(=O)/C(=C/c2ccc3c(c2)OC(F)(F)O3)S1 , report its residual activity.
Response line: 102

Prompt line: Using the record for CO[C@H]1CC2CC[C@@H](C)[C@@](O)(O2)C(=O)C(=O)N2CCCC[C@H]2C(=O)OC([C@H](C)C[C@@H]2CC[C@@H](O)[C@H](OC)C2)CC(=O)[C@H](C)/C=C(\C)[C@@H](O)[C@@H](OC)C(=O)[C@H](C)C[C@H](C)/C=C/C=C/C=C/1C (stereo partly specified) , report its residual activity.
Response line: 95.9

Prompt line: Using the record for Nc1ccc2ncnc(NCCc3ccc(Oc4ccccc4)cc3)c2c1 , report its residual activity.
Response line: 104

====

target or system: RAF1 (human)
measurement protocol: radiometric filter-binding kinase assay, Kinase HotSpot
run parameters: compound 0.5 µM; ATP 10 µM
Would you kindly list residual activity for each of these compounds?
Please make sure the unit comes right after the number.

Prompt line: Using the record for N#C/C(=C(/N)Sc1ccc(N)cc1)c1ccccc1C(F)(F)F , report its residual activity.
Response line: 103%

Prompt line: Using the record for CO[C@H]1CC2CC[C@@H](C)[C@@](O)(O2)C(=O)C(=O)N2CCCC[C@H]2C(=O)OC([C@H](C)C[C@@H]2CC[C@@H](O)[C@H](OC)C2)CC(=O)[C@H](C)/C=C(\C)[C@@H](O)[C@@H](OC)C(=O)[C@H](C)C[C@H](C)/C=C/C=C/C=C/1C (some centres undefined) , report its residual activity.
Response line: 97.2%

Prompt line: Using the record for CCN(CC)CCNC(=O)c1c(C)[nH]c(/C=C2\C(=O)Nc3ccc(Cl)cc32)c1C , report its residual activity.
Response line: 117%

Prompt line: Using the record for N#CC(C#N)=C(N)/C(C#N)=C/c1ccc(O)cc1 , report its residual activity.
Response line: 86.3%

Prompt line: Using the record for CC[n+]1c(/C=C/N(C)c2ccccc2)n(-c2ccccc2)c2ccc(-c3nc4ccccc4s3)cc21 , report its residual activity.
Response line: 96.8%

Prompt line: Using the record for Cc1ccc(NC2=CC(=O)c3sc(C)nc3C2=O)cc1 , report its residual activity.
Response line: 90.5%

Prompt line: Using the record for c1ccc(-c2n[nH]cc2-c2ccnc3ccccc23)nc1 , report its residual activity.
Response line: 89.5%

Prompt line: Using the record for Nc1ncnc2[nH]nc(Nc3ccc(F)cc3)c12 , report its residual activity.
Response line: 96.7%

Prompt line: Using the record for O=c1cc(N2CCOCC2)oc2c1ccc1ccccc12 , report its residual activity.
Response line: 97.9%

====

target or system: PRKACA (human) (UniProt P17612)
measurement protocol: radiometric filter-binding kinase assay, Kinase HotSpot
run parameters: compound 0.5 µM; ATP 10 µM
endpoint: residual activity (%)
Numeric answer only, unit % assumed.

Prompt line: State its residual activity on PRKACA (human) (UniProt P17612): N#C/C(=C(/N)Sc1ccc(N)cc1)c1ccccc1C(F)(F)F
Response line: 109

Prompt line: State its residual activity on PRKACA (human) (UniProt P17612): CCCC(=O)Oc1ccc2[nH]c(C(=O)c3cc4ccccc4[nH]3)cc2c1
Response line: 96.6

Prompt line: State its residual activity on PRKACA (human) (UniProt P17612): CCOC(=O)c1c(C)[nH]c(/C=C2\C(=O)Nc3ccccc32)c1C
Response line: 97.3

Prompt line: State its residual activity on PRKACA (human) (UniProt P17612): CC#CC(=O)Nc1cc2c(Nc3ccc(F)c(Cl)c3)ncnc2cn1
Response line: 97.7

Prompt line: State its residual activity on PRKACA (human) (UniProt P17612): CNc1cc2c(Nc3cccc(Br)c3)ncnc2cn1
Response line: 104

Prompt line: State its residual activity on PRKACA (human) (UniProt P17612): CC(=O)c1ccc(N2CCOCC2)cc1O
Response line: 102

Prompt line: State its residual activity on PRKACA (human) (UniProt P17612): Cc1ccc(NC2=CC(=O)c3sc(C)nc3C2=O)cc1
Response line: 95.9

Prompt line: State its residual activity on PRKACA (human) (UniProt P17612): N#CC(C#N)=C(N)/C(C#N)=C/c1ccc(O)cc1
Response line: 100

Prompt line: State its residual activity on PRKACA (human) (UniProt P17612): CC[n+]1c(/C=C/N(C)c2ccccc2)n(-c2ccccc2)c2ccc(-c3nc4ccccc4s3)cc21
Response line: 103

Prompt line: State its residual activity on PRKACA (human) (UniProt P17612): COc1ccc(COc2ccc(Cc3cnc(N)nc3N)cc2OC)cc1
Response line: 104

Prompt line: State its residual activity on PRKACA (human) (UniProt P17612): Oc1cccc(-c2nc(N3CCOCC3)c3oc4ncccc4c3n2)c1
Response line: 99.5

====

target or system: GSK3A (human)
measurement protocol: radiometric filter-binding kinase assay, Kinase HotSpot
run parameters: compound 0.5 µM; ATP 10 µM
Would you kindly list residual activity for each of these compounds?
Numeric answer only, unit % assumed.

Prompt line: Using the record for O=C1Nc2ccc(Cl)cc2/C1=C/c1cc(Cl)c(O)c(Cl)c1 , report its residual activity.
Response line: 76.1

Prompt line: Using the record for N#CC(C#N)=C(N)/C(C#N)=C/c1ccc(O)cc1 , report its residual activity.
Response line: 91.1

Prompt line: Using the record for CCC(=O)Nc1ccc2ncnc(Nc3cccc(Br)c3)c2c1 , report its residual activity.
Response line: 98.2

Prompt line: Using the record for CCN(CC)CCNC(=O)c1c(C)[nH]c(/C=C2\C(=O)Nc3ccc(F)cc32)c1C , report its residual activity.
Response line: 85.5

Prompt line: Using the record for c1ccc(-c2n[nH]cc2-c2ccnc3ccccc23)nc1 , report its residual activity.
Response line: 95.1

Prompt line: Using the record for CC#CC(=O)Nc1cc2c(Nc3ccc(F)c(Cl)c3)ncnc2cn1 , report its residual activity.
Response line: 104

Prompt line: Using the record for CNc1cc2c(Nc3cccc(Br)c3)ncnc2cn1 , report its residual activity.
Response line: 95.9

Prompt line: Using the record for CC[n+]1c(/C=C/N(C)c2ccccc2)n(-c2ccccc2)c2ccc(-c3nc4ccccc4s3)cc21 , report its residual activity.
Response line: 103

Prompt line: Using the record for O=C1NC(=O)c2c1c1c3ccccc3n3c1c1c2c2ccccc2n1C1CCC3O1 , report its residual activity.
Response line: 2.19

Prompt line: Using the record for COc1cc2ncnc(Nc3cccc(Cl)c3)c2cc1OC , report its residual activity.
Response line: 104

Prompt line: Using the record for Cc1ccc(NC2=CC(=O)c3sc(C)nc3C2=O)cc1 , report its residual activity.
Response line: 102

Prompt line: Using the record for CO[C@H]1CC2CC[C@@H](C)[C@@](O)(O2)C(=O)C(=O)N2CCCC[C@H]2C(=O)OC([C@H](C)C[C@@H]2CC[C@@H](O)[C@H](OC)C2)CC(=O)[C@H](C)/C=C(\C)[C@@H](O)[C@@H](OC)C(=O)[C@H](C)C[C@H](C)/C=C/C=C/C=C/1C (some centres undefined) , report its residual activity.
Response line: 106

Prompt line: Using the record for c1ccc(-c2n[nH]c3c2oc2ccccc23)cc1 , report its residual activity.
Response line: 91.4

Prompt line: Using the record for Nc1ncnc2c1c(-c1ccc(Oc3ccccc3)cc1)cn2C1CCCC1 , report its residual activity.
Response line: 105

Prompt line: Using the record for CCN(CC)C(=O)c1ccc(Nc2nc(OCC3CCCCC3)c3nc[nH]c3n2)cc1 , report its residual activity.
Response line: 80.3

Prompt line: Using the record for Nc1ncnc2[nH]nc(Nc3ccc(F)cc3)c12 , report its residual activity.
Response line: 88.6

Prompt line: Using the record for Cc1[nH]c(/C=C2\C(=O)Nc3ccc(S(=O)(=O)N(C)c4cccc(Cl)c4)cc32)c(C)c1C(=O)N1CCN(C)CC1 , report its residual activity.
Response line: 98.4

Prompt line: Using the record for COc1ccc(COc2ccc(Cc3cnc(N)nc3N)cc2OC)cc1 , report its residual activity.
Response line: 108

Prompt line: Using the record for CC(=O)c1ccc(N2CCOCC2)cc1O , report its residual activity.
Response line: 101
